Experiment: Pharmacokinetics in serum after IV or IN administration
Format: in vivo
Conditions: mouse, serum; IV, 20 mg/kg, mice
measure: Cmax (µg/mL)
Only the number, expressed in µg/mL, is required.

Looking for the measured Cmax of O=c1c(O[C@@H]2O[C@H](CO)[C@H](O)[C@H](O)[C@H]2O)c(-c2ccc(O)c(O)c2)oc2cc(O)cc(O)c12 [HYP, Quercetin-3-O-β-D-galactopyranoside] , can you help?
1160

---

Assay: Pharmacokinetics in brain after IV or IN administration
Assay type: in vivo
Details: mouse, brain; IV, 20 mg/kg, mice
measure: Tmax (h)
Only the number, expressed in h, is required.

Looking for the measured Tmax of O=c1c(O[C@@H]2O[C@H](CO)[C@H](O)[C@H](O)[C@H]2O)c(-c2ccc(O)c(O)c2)oc2cc(O)cc(O)c12 [HYP, Quercetin-3-O-β-D-galactopyranoside] , can you help?
2

---

Test: Pharmacokinetics in serum after IV or IN administration
Format: in vivo
Conditions: mouse, serum, inhaled or intranasal; IN, 20 mg/kg, mice; read-out: Serum Ke (converted)
Protocol: After tail vein injection or nasal administration, blood was collected at 5, 15 and 30 min, 1, 2, 4, 8, 12, 24, 48, 72, 120 and 168 h, for immediate centrifugation at 14,000 rpm for 5 min. […] HYP content was quantified using UHPLC-MS/MS system, which includes Agilent 1290 Infinity UHPLC, and Agilent 6460 Triple Quadrupole, equipped with an electrospray ionization interface used to generate positive ions for the determination of HYP. […]
measure: k el (s⁻¹)
Only the number, expressed in s⁻¹, is required.

Looking for the measured k el of O=c1c(O[C@@H]2O[C@H](CO)[C@H](O)[C@H](O)[C@H]2O)c(-c2ccc(O)c(O)c2)oc2cc(O)cc(O)c12 [HYP, Quercetin-3-O-β-D-galactopyranoside] , can you help?
1.67e-05

---

Assay: Pharmacokinetics in serum after IV or IN administration
Type: in vivo
Settings: mouse, serum, inhaled or intranasal; IN, 20 mg/kg, mice; read-out: Serum t1/2 (converted)
measure: half-life (h)
Only the number, expressed in h, is required.

Looking for the measured half-life of O=c1c(O[C@@H]2O[C@H](CO)[C@H](O)[C@H](O)[C@H]2O)c(-c2ccc(O)c(O)c2)oc2cc(O)cc(O)c12 [HYP, Quercetin-3-O-β-D-galactopyranoside] , can you help?
25.6

---

Target: Aβ aggregates (Homo sapiens)
Sequence (P05067 672-713 limits assumed): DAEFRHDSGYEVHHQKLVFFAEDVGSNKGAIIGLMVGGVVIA
Experiment: Biolayer interferometry (BLI) analysis
Conditions: HYP 6.25–200 μM, biotinylated Aβ aggregate
measure: Kd (µM)
Only the number, expressed in µM, is required.

Looking for the measured Kd of O=c1c(O[C@@H]2O[C@H](CO)[C@H](O)[C@H](O)[C@H]2O)c(-c2ccc(O)c(O)c2)oc2cc(O)cc(O)c12 [HYP, Quercetin-3-O-β-D-galactopyranoside] , can you help?
14.5

---

Experiment: Pharmacokinetics in brain after IV or IN administration
Assay type: in vivo
Settings: mouse, brain, inhaled or intranasal; IN, 20 mg/kg, mice; read-out: Brain Ke (converted)
measure: k el (s⁻¹)
Only the number, expressed in s⁻¹, is required.

Looking for the measured k el of O=c1c(O[C@@H]2O[C@H](CO)[C@H](O)[C@H](O)[C@H]2O)c(-c2ccc(O)c(O)c2)oc2cc(O)cc(O)c12 [HYP, Quercetin-3-O-β-D-galactopyranoside] , can you help?
5.56e-06

src = paper PMC9975698
